target: catalytic portion of the sAC-like adenylyl cyclase from Candida albicans (fragment JR3) (Candida albicans, UniProt A0A1D8PR83); experiment: biochemical; conditions: read-out: EC50 for stimulation of adenylyl cyclase activity of JR3
Sequence (A0A1D8PR83 entry or part of it): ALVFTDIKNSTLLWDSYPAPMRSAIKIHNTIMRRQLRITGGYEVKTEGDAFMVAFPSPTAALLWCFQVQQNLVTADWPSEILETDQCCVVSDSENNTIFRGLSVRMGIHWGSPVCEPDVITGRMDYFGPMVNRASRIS
pEC50: −log10 of the molar value.
RESULT TYPE: pEC50

Reported pEC50 ( O=C([O-])O.[Na+] [bicarbonate, sodium bicarbonate] ) = ~3.70

====

target: purified sperm isoform of sAC protein (pure sAC) (Homo sapiens, UniProt Q96PN6); construct: generated against human 48-kD isoform of sAC (sACt) antigen; made in house; assay: in vitro cyclase activity of purified sAC protein (Table 1); type: biochemical; details: μM
Sequence (Q96PN6 1-469 limits assumed): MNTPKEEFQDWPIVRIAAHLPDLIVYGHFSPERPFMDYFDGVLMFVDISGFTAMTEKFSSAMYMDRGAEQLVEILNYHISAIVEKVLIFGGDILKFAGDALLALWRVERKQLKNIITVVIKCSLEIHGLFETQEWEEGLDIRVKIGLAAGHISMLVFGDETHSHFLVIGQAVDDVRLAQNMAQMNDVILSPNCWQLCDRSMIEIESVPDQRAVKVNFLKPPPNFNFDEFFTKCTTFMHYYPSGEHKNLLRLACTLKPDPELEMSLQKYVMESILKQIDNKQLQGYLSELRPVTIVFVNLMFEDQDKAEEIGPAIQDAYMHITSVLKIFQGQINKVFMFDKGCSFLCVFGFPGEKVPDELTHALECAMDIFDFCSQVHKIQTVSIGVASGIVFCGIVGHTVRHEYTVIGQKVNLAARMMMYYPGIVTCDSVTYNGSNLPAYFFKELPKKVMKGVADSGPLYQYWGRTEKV
Threshold 8 µM: IC50 strictly smaller gives 1, otherwise 0.

*Q* Consider the compound CCCCOc1ccc(C2=N/C(=C\C(Br)=C\c3ccccc3)C(=O)O2)cc1 [KH1] . Is its IC50 strictly less than 8 µM?
*A* 0

*Q* Consider the compound Cc1ccccc1N1C(=O)/C(=C/c2ccc(-c3ccc(Cl)c(Cl)c3)o2)C=C1c1ccccc1 [KH4] . Is its IC50 strictly less than 8 µM?
*A* 1

*Q* Consider the compound COc1ccc(/C=C2\C(=O)N(c3nc(-c4ccc(Cl)cc4)cs3)N=C2c2ccccc2)cc1OC [KH2] . Is its IC50 strictly less than 8 µM?
*A* 1

*Q* Consider the compound O=C(CSc1nc2ccccc2[nH]1)N/N=C/c1cc(Br)ccc1O [KH7.07] . Is its IC50 strictly less than 8 µM?
*A* 0
